- assay.system: T1, BsoBI D246R (UniProt P70985 P70985:1-323, D246R)
- T1 sequence: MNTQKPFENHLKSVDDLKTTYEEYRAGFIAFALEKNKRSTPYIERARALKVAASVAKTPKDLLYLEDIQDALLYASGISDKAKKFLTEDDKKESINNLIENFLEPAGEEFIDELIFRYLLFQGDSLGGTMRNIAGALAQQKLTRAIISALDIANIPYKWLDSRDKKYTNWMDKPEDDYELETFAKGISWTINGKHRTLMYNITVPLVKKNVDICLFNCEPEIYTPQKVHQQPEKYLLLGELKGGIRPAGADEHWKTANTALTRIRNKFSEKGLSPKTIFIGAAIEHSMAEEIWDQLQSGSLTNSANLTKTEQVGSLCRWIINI
- assay.info: filter; 4 mM CaCl2; ±4.6
- condition.description: chain copies: 2 inferred; label: 33P 5' end
readout.label: Kd (nM)
Respond numerically; units are nM and should not be typed.

Incoming: Please report the recorded Kd for S3 (CTCGGG/CCCGAG) (dsDNA) DNA 1: GAGTGTTATGGGTAGCTCGGGTGAAGTGGGAATATC DNA 2: GATATTCCCACTTCACCCGAGCTACCCATAACACTC .
Outgoing: 0.039
